This listing pairs compounds with measured pIC50.
EXPERIMENTAL SYSTEM: Sodium channel protein type 10 subunit alpha (Mus musculus)
Sequence (Q6QIY3 whole entry): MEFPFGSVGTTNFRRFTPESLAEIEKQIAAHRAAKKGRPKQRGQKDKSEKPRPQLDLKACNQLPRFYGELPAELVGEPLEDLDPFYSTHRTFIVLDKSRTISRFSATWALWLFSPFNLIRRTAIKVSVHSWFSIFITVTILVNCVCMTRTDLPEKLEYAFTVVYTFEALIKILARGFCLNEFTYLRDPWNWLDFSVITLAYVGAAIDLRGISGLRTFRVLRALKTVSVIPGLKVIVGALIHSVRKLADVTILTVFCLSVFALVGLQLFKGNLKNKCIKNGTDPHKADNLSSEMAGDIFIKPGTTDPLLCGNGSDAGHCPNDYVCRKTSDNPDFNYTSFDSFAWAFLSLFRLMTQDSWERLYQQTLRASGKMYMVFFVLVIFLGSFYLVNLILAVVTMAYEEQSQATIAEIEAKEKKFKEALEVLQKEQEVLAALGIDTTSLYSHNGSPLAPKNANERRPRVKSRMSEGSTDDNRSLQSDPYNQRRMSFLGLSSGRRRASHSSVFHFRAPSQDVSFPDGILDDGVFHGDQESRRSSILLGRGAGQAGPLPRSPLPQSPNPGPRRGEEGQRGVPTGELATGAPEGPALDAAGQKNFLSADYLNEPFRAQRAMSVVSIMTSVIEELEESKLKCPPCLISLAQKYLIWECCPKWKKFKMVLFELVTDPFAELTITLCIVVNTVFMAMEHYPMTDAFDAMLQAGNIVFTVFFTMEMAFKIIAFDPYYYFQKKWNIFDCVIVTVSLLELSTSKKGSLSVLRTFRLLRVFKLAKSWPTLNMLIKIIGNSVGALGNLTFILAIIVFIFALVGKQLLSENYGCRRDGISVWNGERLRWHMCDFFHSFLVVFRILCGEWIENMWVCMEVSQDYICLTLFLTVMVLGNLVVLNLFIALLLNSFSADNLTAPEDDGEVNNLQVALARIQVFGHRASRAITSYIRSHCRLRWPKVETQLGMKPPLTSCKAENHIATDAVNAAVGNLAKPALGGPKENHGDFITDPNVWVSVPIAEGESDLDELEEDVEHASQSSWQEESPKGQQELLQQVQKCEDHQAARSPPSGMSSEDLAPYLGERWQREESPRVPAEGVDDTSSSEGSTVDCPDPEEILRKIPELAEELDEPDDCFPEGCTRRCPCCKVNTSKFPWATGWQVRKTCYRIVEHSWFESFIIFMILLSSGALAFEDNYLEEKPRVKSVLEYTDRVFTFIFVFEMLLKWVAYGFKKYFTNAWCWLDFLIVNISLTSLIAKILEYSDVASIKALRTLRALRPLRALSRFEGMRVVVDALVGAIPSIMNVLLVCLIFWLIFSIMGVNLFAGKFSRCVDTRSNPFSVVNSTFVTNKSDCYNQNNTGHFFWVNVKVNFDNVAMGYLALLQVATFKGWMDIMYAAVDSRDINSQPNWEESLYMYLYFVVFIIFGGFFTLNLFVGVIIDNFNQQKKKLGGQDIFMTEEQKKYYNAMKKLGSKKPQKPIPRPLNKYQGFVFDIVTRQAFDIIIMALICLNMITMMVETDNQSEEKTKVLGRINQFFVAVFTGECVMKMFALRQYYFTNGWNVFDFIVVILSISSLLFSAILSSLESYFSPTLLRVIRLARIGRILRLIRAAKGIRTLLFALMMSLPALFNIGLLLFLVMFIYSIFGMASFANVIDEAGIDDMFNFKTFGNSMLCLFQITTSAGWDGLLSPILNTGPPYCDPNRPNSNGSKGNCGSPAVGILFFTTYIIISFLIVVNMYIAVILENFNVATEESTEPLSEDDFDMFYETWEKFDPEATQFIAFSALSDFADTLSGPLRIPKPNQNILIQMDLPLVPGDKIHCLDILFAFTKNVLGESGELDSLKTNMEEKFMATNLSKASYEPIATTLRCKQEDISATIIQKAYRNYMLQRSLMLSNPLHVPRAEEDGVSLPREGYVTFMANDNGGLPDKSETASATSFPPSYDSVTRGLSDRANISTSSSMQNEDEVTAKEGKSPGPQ
EXPERIMENTAL DETAILS: Inhibition of mouse recombinant Nav1.8 channel expressed in HEK293 cells by isotopic efflux assay
pIC50: −log10 of the molar value.
OBSERVABLE: pIC50

[[record]]
structure_smiles_string = "O=C(c1ccc(-c2ccc(Cl)cc2)o1)N1CCN(C2CCCCC2)CC1"
measured_number = 6.00

[[record]]
structure_smiles_string = "O=C(NCCCN1CCCCC1)c1ccc(-c2ccc(Cl)cc2)o1"
measured_number = 5.80

[[record]]
structure_smiles_string = "O=C(NCCN1CCCCC1)c1ccc(-c2ccc(Cl)cc2)o1"
measured_number = 6.05

[[record]]
structure_smiles_string = "O=C(c1ccc(-c2ccc(Cl)cc2)o1)N1CCOCC1"
measured_number = 4.49

[[record]]
structure_smiles_string = "O=C(c1ccc(-c2ccc(Cl)cc2)o1)N1CCN(c2cccc(C(F)(F)F)c2)CC1"
measured_number = 4.85

[[record]]
structure_smiles_string = "O=C(c1ccc(-c2ccc(Cl)cc2)o1)N1CCNCC1"
measured_number = 5.54

[[record]]
structure_smiles_string = "CN1CCC(NC(=O)c2ccc(-c3ccc(Cl)cc3)o2)CC1"
measured_number = 5.72

[[record]]
structure_smiles_string = "CN1CCN(C(=O)c2ccc(-c3ccc(Cl)cc3)o2)CC1"
measured_number = 5.00

[[record]]
structure_smiles_string = "CN(C)CC(C)(C)CNC(=O)c1ccc(-c2ccc(Cl)cc2)o1"
measured_number = 5.62

